Each entry below lists one item and its recorded CC50 value.
test system: Vero; experiment: Cytotoxicity against African green monkey Vero cells measured after 72 hrs by tetrazolium-based colorimetric MTT assay; format: toxicity, cell-based; conditions: chlorocebus sabaeus
Could you give me the number in µM? Just the number is fine.

Study these solved cases before continuing.
structure=Nc1cccc(F)c1C(=O)NNC1CCCCC1 result_number=909
structure=Nc1cccc(F)c1C(=O)NNc1ccc(Cl)cc1Cl result_number=1040
structure=Nc1cccc(F)c1C(=O)NNc1ccccc1Cl result_number=792
structure=Nc1cccc(F)c1C(=O)NNc1ccccc1 result_number=2030
structure=Nc1cccc(F)c1C(=O)O result_number=74

Record request: CC50 value, item `Nc1cccc(F)c1C(=O)NNc1ccc(Cl)cc1`
373

Same read-out for `Nc1cccc(F)c1C(=O)NNc1ccc(C(F)(F)F)cc1` ?
1360

Same read-out for `Nc1cccc(F)c1C(=O)NNc1ccc(F)cc1` ?
1360

Same read-out for `Nc1cccc(F)c1C(=O)NNc1cccc([N+](=O)[O-])c1` ?
1300

----------
tested on: Vero; test: Cytotoxicity against African green monkey Vero cells measured after 72 hrs by tetrazolium-based colorimetric MTT assay; format: toxicity, cell-based; details: chlorocebus sabaeus
Each entry below lists one item and its recorded CC50 value.

Study these solved cases before continuing.
structure=Nc1cccc(F)c1C(=O)NNc1cccc(Cl)c1Cl assay_metric=CC50 result="> 1800 µM"
structure=Nc1cccc(F)c1C(=O)NNc1cccc(Cl)c1 assay_metric=CC50 result="> 1800 µM"
structure=COc1ccc(NNC(=O)c2c(N)cccc2F)cc1 assay_metric=CC50 result="1310 µM"

Record request: CC50 value, item `Cl.Nc1cccc(F)c1C(=O)NNc1ccc(F)cc1`
> 1800 µM

Same read-out for `Nc1cccc(F)c1C(=O)NNc1cccc(F)c1` ?
1360 µM

----------
test system: Mycobacterium tuberculosis; assay: Antibacterial activity against Mycobacterium tuberculosis incubated for 1 to 2 weeks in GastFe medium; format: functional; details: Mycobacterium tuberculosis, time 1-2 weeks; read-out: MIC99
ASSAY_METRIC: MIC99

compound=NC(=O)c1c(N)cccc1F assay_metric=MIC99 result="> 50 µM"

Value wanted: MIC99 (Mycobacterium tuberculosis) of entry `Nc1cccc(F)c1C(=O)NC1CC1`
> 50 µM

Same read-out for `CN1CCN(C(=O)c2c(N)cccc2F)CC1` ?
> 50 µM

Same read-out for `CC(C)NC(=O)c1c(N)cccc1F` ?
> 50 µM

Same read-out for `Nc1cccc(F)c1-c1nnn[nH]1` ?
> 50 µM

----------
test system: Mycobacterium tuberculosis; experiment: Antibacterial activity against Mycobacterium tuberculosis incubated for 1 to 2 weeks in GastFe medium; assay type: functional; conditions: Mycobacterium tuberculosis, time 1-2 weeks; read-out: MIC99
ASSAY_METRIC: MIC99

compound=Cc1nnc(-c2c(N)cccc2F)o1 result="> 50 µM"
compound=Nc1cccc(F)c1C(=O)NNCc1ccccc1 result="> 50 µM"
compound=Nc1cccc(F)c1C(=O)N1CCOCC1 result="> 50 µM"
compound=Nc1cccc(F)c1C(=O)NNc1ccc([N+](=O)[O-])cc1[N+](=O)[O-] result="> 50 µM"
compound=CC(C)(C)OC(=O)NNC(=O)c1c(N)cccc1F result="> 50 µM"
compound=CONC(=O)c1c(N)cccc1F result="> 50 µM"
compound=Nc1cccc(F)c1C(=O)N1CCCCC1 result="> 50 µM"
compound=NNC(=O)c1c(N)cccc1F result="> 50 µM"

Record request: MIC99 value, item `Nc1cccc(F)c1C(=O)NC1CCC1`
> 50 µM

Same read-out for `Nc1cccc(F)c1C(=O)NNc1ccccc1[N+](=O)[O-]` ?
> 50 µM

Same read-out for `Cc1nc(-c2c(N)cccc2F)no1` ?
> 50 µM

Same read-out for `Nc1cccc(F)c1C(=O)NNc1ccc(Cl)cc1` ?
3.12 µM

Same read-out for `Nc1cccc(F)c1C(=O)NO` ?
> 50 µM

Same read-out for `Nc1cccc(F)c1C(=O)NNc1cccc(Cl)c1` ?
6.25 µM

----------
system: Mycobacterium tuberculosis; experiment: Antibacterial activity against Mycobacterium tuberculosis incubated for 1 to 2 weeks in GastFe medium; format: functional; details: Mycobacterium tuberculosis, time 1-2 weeks; read-out: MIC99
Each entry below lists one item and its recorded MIC99 value.

Study these solved cases before continuing.
compound=Nc1cccc(F)c1C(=O)Nc1ccc(F)cc1 result="> 50 µM"
compound=Nc1cccc(F)c1C(=O)NNc1c(Cl)cc(Cl)cc1Cl result="1.25 µM"
compound="Nc1cccc(F)c1C(Nc1ccc(F)cc1)C(F)(F)F (stereo not drawn)" result="50 µM"
compound=Nc1cccc(F)c1C(=O)NC1CCCCC1 result="> 50 µM"
compound="Nc1cccc(F)c1C(N1CCOCC1)C(F)(F)F (stereo not drawn)" result="50 µM"

Record request: MIC99 value, item `Nc1cccc(F)c1C(=O)NCCO`
> 50 µM

Same read-out for Nc1cccc(F)c1C(N1CCSCC1)C(F)(F)F (stereo not drawn) ?
50 µM

Same read-out for `Nc1cccc(F)c1C(=O)N1CCCC1` ?
> 50 µM
